assayed.target: GLP-1R (Homo sapiens, UniProt P43220)
Construct: host or cells: GLP-1R CRE-bla CHO-K1 cells
Sequence (P43220 24-463): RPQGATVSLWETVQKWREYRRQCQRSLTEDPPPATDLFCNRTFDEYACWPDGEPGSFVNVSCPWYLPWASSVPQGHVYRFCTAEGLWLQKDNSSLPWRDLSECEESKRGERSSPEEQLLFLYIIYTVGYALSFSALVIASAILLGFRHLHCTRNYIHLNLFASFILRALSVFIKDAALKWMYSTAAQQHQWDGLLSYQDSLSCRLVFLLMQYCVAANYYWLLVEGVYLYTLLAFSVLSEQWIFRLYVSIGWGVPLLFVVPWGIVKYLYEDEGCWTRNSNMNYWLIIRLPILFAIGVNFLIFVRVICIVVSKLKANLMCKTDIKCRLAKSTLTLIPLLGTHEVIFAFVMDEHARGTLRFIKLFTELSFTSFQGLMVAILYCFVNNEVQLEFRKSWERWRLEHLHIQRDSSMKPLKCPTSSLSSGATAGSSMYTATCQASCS
Sequence (P01275 100-127 partner limits assumed): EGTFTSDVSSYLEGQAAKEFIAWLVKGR
assay.summary: EC20 GLP-1(9-36) PAM cAMP assay: dose response of compound in the presence of fixed concentration of GLP-1(9-36)
Type: cell-based
experimental.parameters: GLP-1R CRE-bla CHO-K1 cells, compound dose response with fixed concentration of GLP-1(9-36), read-out: EC20 GLP-1(9-36) PAM EC50
The following compounds are listed with their measured EC50 values.

compound | measurement.kind | result
CC[C@H]1CC[C@H](c2ccc(-c3cnc(-c4ccc(C[C@H](NC(=O)c5ccc(C(C)(C)C)s5)C(=O)N[C@@H](CO)C(=O)O)cc4)nc3)cc2)CC1 [Compound 1326] | EC50 | < 800 nM
CCC[C@H]1CC[C@H](C2CCN(c3cnc(-c4ccc(C[C@H](NC(=O)c5cnn(C(C)(C)C)c5)C(=O)N5CC(C(=O)O)C5)cc4)nc3)CC2)CC1 [Compound 1516] | EC50 | < 800 nM
CN(C)c1ccc(C2CCN(c3cnc(-c4ccc(CC(NC(=O)c5ccc(C(C)(C)C)s5)C(=O)N5CC(C(=O)O)C5)cc4)nc3)CC2)cc1 (stereo not shown) [Compound 1486] | EC50 | 800 to 2500 nM

Next:
Prompt line: Give a short answer stating reported EC50 for CCC[C@H]1CC[C@H](C2CCN(c3cnc(-c4ccc(CC(NC(=O)c5ccc(C(C)(C)C)s5)C(=O)NS(=O)(=O)CC(C)(C)C)cc4)nc3)CC2)CC1 (stereo partly shown) [Compound 1544] .
Response line: < 800 nM

Cited source: patent US10034886B2
